These data points were gathered from PubChem BioAssay AID1996.

Measured solubility kinetic accompanies every entry in the list below.
- measurement conditions: buffer; pH 7.4; 200.0 µM
Please respond with the number in µg/mL and leave the unit unwritten.

# count of solved cases: 4
COc1cccc2[nH]c3c(N4CCc5ccccc5C4)ncnc3c12
0.9
COC(=O)/C=C1\SC(=NC(=O)c2ccc(C)cc2)NC1=O
44.5
CC(=O)c1ccc2c(c1)c(C#N)c1ccccc1[n+]2[O-]
1.7
C#CCN1C(=O)S/C(=C\c2cc3c(cc2OC)OCO3)C1=O
1.1

[Q] Would you kindly share the measured solubility kinetic for O=S(=O)(NC1CCCCCCC1)c1ccccc1F ?
[A] 42.5

[Q] Would you kindly share the measured solubility kinetic for Cn1cc(C(=O)Nc2ccccn2)c(=O)c2ccccc21 ?
[A] 1.3

[Q] Would you kindly share the measured solubility kinetic for Cc1ccc(NC(=O)CSc2ncc3ccccn23)cc1C ?
[A] 40.5

[Q] Would you kindly share the measured solubility kinetic for CC(=O)c1sc(-c2ccccc2)nc1C ?
[A] 13.9

[Q] Would you kindly share the measured solubility kinetic for CCNc1ccc(C(=O)OCC(=O)N2CCCC2)cc1[N+](=O)[O-] ?
[A] 43.9

----------
- measurement conditions: buffer; pH 7.4; 200.0 µM
Measured solubility kinetic accompanies every entry in the list below.

# count of solved cases: 5
Cc1ccc(NC(=O)CNC(C)c2ccccc2)cc1.Cl (configuration not stated)
> 45.7 µg/mL
COc1cc(CC(=O)OCC(=O)NCc2ccco2)cc(OC)c1OC
> 54.5 µg/mL
COC(=O)c1ccc(C(=S)N2CCCCC2)cc1
> 39.5 µg/mL
O=C(COc1ccccc1)NC1CCS(=O)(=O)C1 (configuration not stated)
> 40.4 µg/mL
N/C(Cc1nc(-c2ccc(Cl)cc2)cs1)=N/O
32.3 µg/mL

[Q] Would you kindly share the measured solubility kinetic for CCOC(=O)c1ccc(NC(=O)N2C[C@@H]3C[C@@H](C2)c2cccc(=O)n2C3)cc1 ?
[A] > 57.2 µg/mL

[Q] Would you kindly share the measured solubility kinetic for COc1cccc(OC)c1C(=O)Nc1cccc(-c2nc3ccccc3[nH]2)c1 ?
[A] 11.1 µg/mL

[Q] Would you kindly share the measured solubility kinetic for CN1C(=O)NC(c2ccccc2[N+](=O)[O-])C2=C1CCCC2=O (configuration not stated) ?
[A] > 45.2 µg/mL

[Q] Would you kindly share the measured solubility kinetic for Fc1cc(Cl)ccc1NC(=S)NCCN1CCOCC1 ?
[A] > 47.7 µg/mL

[Q] Would you kindly share the measured solubility kinetic for CN1C(=S)SC2CS(=O)(=O)CC21 (configuration not stated) ?
[A] > 33.5 µg/mL

[Q] Would you kindly share the measured solubility kinetic for Cc1csc(NC(=O)Cc2ccc(Cl)cc2)n1 ?
[A] 22.2 µg/mL

[Q] Would you kindly share the measured solubility kinetic for CCc1ccc(/C=C2/C(=O)NC(=O)N2C(C)=O)cc1 ?
[A] 18.6 µg/mL

----------
Measured solubility kinetic accompanies every entry in the list below.
- measurement conditions: buffer; pH 7.4; 200.0 µM
Please respond with the number in µg/mL and leave the unit unwritten.

CCOC(=O)c1cnc2c(ccc3ccccc32)c1NCCN(C)C
36.3

[Q] Would you kindly share the measured solubility kinetic for O=C(Cc1c(F)cccc1Cl)Nc1ncc([N+](=O)[O-])s1 ?
[A] 16.7

[Q] Would you kindly share the measured solubility kinetic for CN(C)C(=O)COc1ccc2c3c(c(=O)oc2c1)CCCC3 ?
[A] 44.6

[Q] Would you kindly share the measured solubility kinetic for COC(=O)c1sccc1NC(=S)OC ?
[A] 6.1

[Q] Would you kindly share the measured solubility kinetic for N#CCN1CCN(CC(=O)c2ccc(Br)cc2)CC1 ?
[A] 47.3

----------
- measurement conditions: buffer; pH 7.4; 200.0 µM
Classification field: Met = solubility kinetic at or over 10 µg/mL; Not met = solubility kinetic under 10 µg/mL.

CC1CN(C(=O)c2cccc(Oc3ccccc3)c2)CC(C)O1 (configuration not stated)
Met
Cc1ccc(C(C)C)c(OCC#CCN2CCCC2)c1.O=C(O)C(=O)O
Met
CCC(C(=O)Nc1nc(C)c(C(=O)OC)s1)c1ccccc1 (configuration not stated)
Met
C/C(=C\c1ccccc1)CN1CCN(C(C)C)C(CCO)C1 (configuration not stated)
Met
C=CCN1CCN(C(=O)c2cc3c(s2)CCC(CC)C3)CC1 (configuration not stated)
Met

Consider now this further compound.
[Q] // inclusive: solubility kinetic at least 10 µg/mL? input: Cc1csc(NC(=O)c2ccc(Br)s2)n1
[A] Met

----------
- measurement conditions: buffer; pH 7.4; 200.0 µM
measured endpoint: log10(solubility kinetic) (log10 of the value in µg/mL)
A difference of one corresponds to tenfold solubility kinetic; all values are log10 with solubility kinetic in µg/mL.

CC(=O)N1CCCC1(C(=O)O)c1ccccc1 (configuration not stated)
1.53

[Q] Would you kindly share the measured log10(solubility kinetic) for CCOc1ccccc1/C=C/c1nc2ccccc2[nH]c1=O ?
[A] 0.20

[Q] Would you kindly share the measured log10(solubility kinetic) for COc1ccc(C(=O)CC(=O)C(=O)Nc2c(C)cccc2C)cc1 ?
[A] 1.19

[Q] Would you kindly share the measured log10(solubility kinetic) for O=C(Nc1ccc(C(F)(F)F)cc1)OC1CN2CCC1CC2 (configuration not stated) ?
[A] 1.65

----------
- measurement conditions: buffer; pH 7.4; 200.0 µM
measured endpoint: solubility kinetic (mg/mL)
Please respond with the number in mg/mL and leave the unit unwritten.

O=C(CN1CCN(c2ccc(O)cc2)CC1)Nc1ccc(S(=O)(=O)N2CCCC2)cc1
0.0446
COc1cc(NC(=S)Nc2ccc(OC(F)F)cc2)cc(OC)c1
0.0239
Cc1ccc(C)c(NC(=O)NCc2ccccn2)c1
0.0354

[Q] Would you kindly share the measured solubility kinetic for O=C(C[n+]1ccccc1)Nc1ccccc1[N+](=O)[O-].[Cl-] ?
[A] 0.034

[Q] Would you kindly share the measured solubility kinetic for CC1(C)Cc2ccccc2-c2nc3n(c(=O)c21)CCCS3 ?
[A] 0.0009

----------
Measured log10(solubility kinetic) accompanies every entry in the list below.
- measurement conditions: buffer; pH 7.4; 200.0 µM
A difference of one corresponds to tenfold solubility kinetic; all values are log10 with solubility kinetic in µg/mL.

# count of solved cases: 2
Cc1ccccc1NC(=O)Cc1cccc(C(F)(F)F)c1
0.72
CCN(CC)c1ccc(C(=O)OCC(=O)Nc2cc(C)on2)cc1
0.66

[Q] Would you kindly share the measured log10(solubility kinetic) for COc1ccccc1CC(=O)N1CCN(c2cccc(Cl)c2)CC1 ?
[A] 1.34

[Q] Would you kindly share the measured log10(solubility kinetic) for COc1cccc(NC(=O)Cn2cc(C=O)c3ccccc32)c1 ?
[A] -0.30

[Q] Would you kindly share the measured log10(solubility kinetic) for Cc1ccc2c(Cl)cc(Cl)c(OCC(=O)NC(C)(C)C)c2n1 ?
[A] 1.00

----------
- measurement conditions: buffer; pH 7.4; 200.0 µM
measured endpoint: solubility kinetic

# count of solved cases: 4
Cc1nc(N)c(C#N)c(-c2cccnc2)c1-c1ccccc1
0.6 µg/mL
Cc1cc(C(=O)Nc2cc(Br)ccc2O)on1
7.6 µg/mL
CCOCCCNC(=O)c1c[nH]c2c(CC)cccc2c1=O
> 45.4 µg/mL
COc1ccc(S(=O)(=O)N2CCN(C(=O)N(C)C)C2C)cc1 (stereo not given)
> 49.1 µg/mL

[Q] Would you kindly share the measured solubility kinetic for COc1ccc(C)cc1NC(=O)NCc1ccccc1F ?
[A] 2 µg/mL

[Q] Would you kindly share the measured solubility kinetic for CC(C)c1ccc(NC(=O)COC(=O)C2CC3C=CC2C3)cc1 (stereo not given) ?
[A] 22.1 µg/mL

[Q] Would you kindly share the measured solubility kinetic for O=C(COC(=O)c1cccc(F)c1)NC(=O)NC1CCCC1 ?
[A] 41.4 µg/mL

[Q] Would you kindly share the measured solubility kinetic for CCN(CC)S(=O)(=O)c1cccc(NC2=NCCCCC2)c1 ?
[A] 46.8 µg/mL

[Q] Would you kindly share the measured solubility kinetic for COc1ccc(Cl)c(OC)c1C(=O)NC(=O)Nc1nc(C)nc(C)n1 ?
[A] 51.4 µg/mL

[Q] Would you kindly share the measured solubility kinetic for O=C1C(Cc2ccc(O)cc2)NC(=S)N1C1CCCCC1 (stereo not given) ?
[A] 44.9 µg/mL

[Q] Would you kindly share the measured solubility kinetic for CNc1nc(-c2ccccc2)cc(-c2ccccc2)n1 ?
[A] 1.4 µg/mL

[Q] Would you kindly share the measured solubility kinetic for COc1ccc(S(=O)(=O)N2CCN(CCc3ccccc3)CC2)cc1 ?
[A] 1.5 µg/mL

[Q] Would you kindly share the measured solubility kinetic for Cc1ccc(Sc2ncccc2[N+](=O)[O-])cc1 ?
[A] 2.8 µg/mL

[Q] Would you kindly share the measured solubility kinetic for CC(C)(C)S(=O)(=O)c1cnc(-c2ccc(Cl)cc2)nc1N ?
[A] < 0.2 µg/mL

[Q] Would you kindly share the measured solubility kinetic for Cc1ccc(S(=O)(=O)CC(=O)c2ccc([N+](=O)[O-])cc2)cc1 ?
[A] 9.1 µg/mL

[Q] Would you kindly share the measured solubility kinetic for Cc1ccc(N2CCN(C(=S)Nc3ccccc3)CC2)cc1 ?
[A] 1 µg/mL

[Q] Would you kindly share the measured solubility kinetic for Cc1ccc(NC(=O)Nc2cccc(C)n2)cc1 ?
[A] 0.8 µg/mL

[Q] Would you kindly share the measured solubility kinetic for C1CN(c2nc(N3CCOCC3)nc(N3CCOCC3)n2)CCO1 ?
[A] 20.6 µg/mL

[Q] Would you kindly share the measured solubility kinetic for Cc1cc(C)c(C(=O)N2CCC3(CC2)OCCO3)c(C)c1 ?
[A] > 43.4 µg/mL

[Q] Would you kindly share the measured solubility kinetic for COc1cc(NC(=O)C2CC2)c(OC)cc1NC(=O)c1ccco1 ?
[A] 3.6 µg/mL

[Q] Would you kindly share the measured solubility kinetic for Cc1cc(NC(=O)Cc2ccsc2)ccc1Br ?
[A] 4.5 µg/mL

[Q] Would you kindly share the measured solubility kinetic for O=C(Nc1ccccc1)NC1CCCCNC1=O (stereo not given) ?
[A] > 37.1 µg/mL

[Q] Would you kindly share the measured solubility kinetic for O=C(OCC(=O)N1CCCC1=O)c1nc(Cl)c(Cl)c(Cl)c1Cl ?
[A] 32.9 µg/mL

[Q] Would you kindly share the measured solubility kinetic for COc1ccccc1NC(=O)c1cc(Cl)nc2ccccc12 ?
[A] 3.4 µg/mL

[Q] Would you kindly share the measured solubility kinetic for Cc1cc(C)n2nc(SCC(=O)N3CC(C)CC(C)C3)nc2n1 (stereo not given) ?
[A] > 50 µg/mL
